# system-under-test: Polyamine deacetylase HDAC10 (Homo sapiens)
# Sequence (Q969S8 whole entry): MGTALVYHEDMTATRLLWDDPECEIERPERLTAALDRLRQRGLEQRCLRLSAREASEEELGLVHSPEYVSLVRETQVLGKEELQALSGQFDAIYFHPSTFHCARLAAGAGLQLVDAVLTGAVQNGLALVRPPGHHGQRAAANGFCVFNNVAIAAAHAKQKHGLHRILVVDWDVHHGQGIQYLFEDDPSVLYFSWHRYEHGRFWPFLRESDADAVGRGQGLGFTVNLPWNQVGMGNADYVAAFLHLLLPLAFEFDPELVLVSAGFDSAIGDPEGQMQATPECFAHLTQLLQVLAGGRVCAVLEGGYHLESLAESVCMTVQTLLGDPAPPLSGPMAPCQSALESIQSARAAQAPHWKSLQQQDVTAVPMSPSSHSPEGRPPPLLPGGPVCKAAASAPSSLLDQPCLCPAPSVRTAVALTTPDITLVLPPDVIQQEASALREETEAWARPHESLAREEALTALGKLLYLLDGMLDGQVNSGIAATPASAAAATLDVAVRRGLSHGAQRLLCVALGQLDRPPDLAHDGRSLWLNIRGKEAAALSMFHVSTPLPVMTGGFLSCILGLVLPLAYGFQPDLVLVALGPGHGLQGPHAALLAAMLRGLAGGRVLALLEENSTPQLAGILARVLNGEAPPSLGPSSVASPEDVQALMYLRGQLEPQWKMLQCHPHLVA
# assay-name: Inhibition of recombinant full length human HDAC10 expressed in SF9 baculovirus using FAM- labelled acetylated peptide as substrate measured by Electrophoretic mobility shift assay
property-label: IC50

Q: // map O=C(NO)c1ccc(CNC(=O)c2c(F)c(F)c(F)c(F)c2F)cc1 to recorded IC50 (system: Polyamine deacetylase HDAC10 (Homo sapiens))
Result: > 1 µM

---

# system-under-test: Histone deacetylase 8 (Homo sapiens)
# Sequence (Q9BY41 whole entry): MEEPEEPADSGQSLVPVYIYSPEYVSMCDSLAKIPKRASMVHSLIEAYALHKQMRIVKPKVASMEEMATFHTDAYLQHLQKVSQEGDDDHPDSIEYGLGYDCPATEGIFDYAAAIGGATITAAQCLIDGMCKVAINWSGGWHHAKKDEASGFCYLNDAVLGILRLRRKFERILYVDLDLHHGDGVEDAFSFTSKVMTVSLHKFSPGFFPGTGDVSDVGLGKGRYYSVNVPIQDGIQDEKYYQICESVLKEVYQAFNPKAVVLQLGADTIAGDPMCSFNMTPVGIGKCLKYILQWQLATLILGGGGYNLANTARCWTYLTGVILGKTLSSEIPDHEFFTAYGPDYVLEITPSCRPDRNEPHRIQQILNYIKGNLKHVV
# assay-name: Inhibition of recombinant full length human HDAC8 expressed in SF9 baculovirus using FAM- labelled acetylated peptide as substrate measured by Electrophoretic mobility shift assay
property-label: IC50 (nM)
Answers are plain numbers, in nM.

Please review the entries below; each comes with its answer.
[
  {
    "compound-structure-string": "CC(C)(C)c1ccc(S(=O)(=O)NCc2ccc(C(=O)NO)cc2)cc1",
    "IC50 (nM)": 622
  },
  {
    "compound-structure-string": "CC(C)(C)c1ccc(NS(=O)(=O)c2ccc(C(=O)NO)cc2)cc1",
    "IC50 (nM)": 9.4
  },
  {
    "compound-structure-string": "O=C(NO)c1ccc(CN(C(=O)c2c(F)c(F)c(F)c(F)c2F)C2CC2)cc1",
    "IC50 (nM)": 971
  },
  {
    "compound-structure-string": "O=C(NO)c1ccc(NC(=O)c2ccc(N3CCOCC3)cc2)cc1",
    "IC50 (nM)": 921
  },
  {
    "compound-structure-string": "CC(C)(C)c1ccc(CC(=O)Nc2ccc(C(=O)NO)cc2)cc1",
    "IC50 (nM)": 74.3
  },
  {
    "compound-structure-string": "CC(C)(C)c1ccc(C(=O)NCc2ccc(C(=O)NO)cc2)cc1",
    "IC50 (nM)": 162
  },
  {
    "compound-structure-string": "O=C(NO)c1ccc(NC(=O)c2ccc(C(F)(F)F)cc2)cc1",
    "IC50 (nM)": 220
  },
  {
    "compound-structure-string": "O=C(NO)c1ccc(NC(=O)c2ccc(F)cc2)cc1",
    "IC50 (nM)": 567
  },
  {
    "compound-structure-string": "O=C(NO)c1ccc(NC(=O)c2ccc(C3CCCCC3)cc2)cc1",
    "IC50 (nM)": 208
  },
  {
    "compound-structure-string": "CC(C)N(Cc1ccc(C(=O)NO)cc1)C(=O)c1c(F)c(F)c(F)c(F)c1F",
    "IC50 (nM)": 876
  }
]

// next entry
Q: Given CC(C)(C)c1ccc(S(=O)(=O)Nc2ccc(C(=O)NO)cc2)cc1 , state its recorded IC50.
Result: 13.3

---

# system-under-test: Protein deacetylase HDAC6 (Homo sapiens)
# Sequence (Q9UBN7 whole entry): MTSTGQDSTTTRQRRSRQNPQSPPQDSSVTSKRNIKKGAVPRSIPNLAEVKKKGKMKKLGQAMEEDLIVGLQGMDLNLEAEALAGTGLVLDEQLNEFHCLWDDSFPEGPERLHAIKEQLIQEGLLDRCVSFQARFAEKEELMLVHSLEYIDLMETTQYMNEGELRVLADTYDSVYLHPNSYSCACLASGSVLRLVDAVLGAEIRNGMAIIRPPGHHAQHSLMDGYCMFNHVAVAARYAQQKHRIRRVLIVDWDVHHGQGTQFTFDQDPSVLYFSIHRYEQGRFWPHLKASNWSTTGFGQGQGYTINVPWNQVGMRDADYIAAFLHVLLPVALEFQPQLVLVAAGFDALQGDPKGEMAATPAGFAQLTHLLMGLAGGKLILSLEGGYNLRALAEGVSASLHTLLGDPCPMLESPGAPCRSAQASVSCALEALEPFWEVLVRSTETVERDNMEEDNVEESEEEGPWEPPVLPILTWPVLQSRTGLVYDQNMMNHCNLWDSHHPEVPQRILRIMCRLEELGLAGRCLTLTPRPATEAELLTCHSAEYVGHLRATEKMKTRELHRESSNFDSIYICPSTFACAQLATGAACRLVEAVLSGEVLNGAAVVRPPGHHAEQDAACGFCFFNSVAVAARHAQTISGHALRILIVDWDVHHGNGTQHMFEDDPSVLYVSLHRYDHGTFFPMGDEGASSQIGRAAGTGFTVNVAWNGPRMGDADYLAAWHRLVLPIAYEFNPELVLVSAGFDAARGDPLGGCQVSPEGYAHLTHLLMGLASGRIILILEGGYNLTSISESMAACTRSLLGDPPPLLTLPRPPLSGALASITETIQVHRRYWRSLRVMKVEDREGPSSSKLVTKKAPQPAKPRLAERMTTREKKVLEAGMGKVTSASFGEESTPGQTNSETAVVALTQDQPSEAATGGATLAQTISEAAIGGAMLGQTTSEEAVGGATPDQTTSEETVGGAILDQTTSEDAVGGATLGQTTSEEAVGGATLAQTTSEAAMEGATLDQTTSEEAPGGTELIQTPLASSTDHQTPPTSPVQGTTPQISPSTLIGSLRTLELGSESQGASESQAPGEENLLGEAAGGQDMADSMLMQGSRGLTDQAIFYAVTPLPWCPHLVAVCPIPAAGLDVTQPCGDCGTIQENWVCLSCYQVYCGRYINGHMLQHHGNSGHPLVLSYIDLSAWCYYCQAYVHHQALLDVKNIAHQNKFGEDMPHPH
# assay-name: Inhibition of recombinant full length human HDAC6 expressed in SF9 baculovirus using FAM- labelled acetylated peptide as substrate measured by Electrophoretic mobility shift assay
Lab note: anything with IC50 below 0.02 µM is marked 1 (yes); values at 0.02 µM or higher are marked 0 (no).

Worked set:
[
  {
    "compound-structure-string": "O=C(NO)c1ccc(NC(=O)c2c(F)c(F)c(F)c(F)c2F)cc1",
    "assigned-class": "1 (yes)"
  },
  {
    "compound-structure-string": "O=C(NO)c1ccc(CN(C(=O)c2c(F)c(F)c(F)c(F)c2F)C2CC2)cc1",
    "assigned-class": "1 (yes)"
  },
  {
    "compound-structure-string": "CC(C)(C)c1ccc(S(=O)(=O)Nc2ccc(C(=O)NO)cc2)cc1",
    "assigned-class": "1 (yes)"
  },
  {
    "compound-structure-string": "CC(C)(C)c1ccc(NS(=O)(=O)c2ccc(C(=O)NO)cc2)cc1",
    "assigned-class": "1 (yes)"
  },
  {
    "compound-structure-string": "CC(C)(C)c1ccc(NC(=O)c2ccc(C(=O)NO)cc2)cc1",
    "assigned-class": "1 (yes)"
  }
]

Kindly consider the entry below.
Q: IC50 strictly < 0.02 µM for this compound? Cc1ccc(C(=O)Nc2ccc(C(=O)NO)cc2)cc1
Result: 1 (yes)
